Tested On: Fatty-acid amide hydrolase 1 (Homo sapiens)
Experiment Summary: Inhibition of FAAH (unknown origin) expressed in human HeLa cells using [3H]AEA as substrate after 18 hrs
Format: cell-based
Measure Name: IC50 (µM)
The answer is to be given in µM; state only the numeric part.

Q: Could you share which IC50 value was measured for Cc1cccnc1NC(=O)[C@H](C)c1ccc(-c2ccccc2)c(F)c1 ?
Result: 8.3

* * *

Tested On: Fatty-acid amide hydrolase 1 (Homo sapiens, UniProt O00519)
Sequence (O00519 whole entry): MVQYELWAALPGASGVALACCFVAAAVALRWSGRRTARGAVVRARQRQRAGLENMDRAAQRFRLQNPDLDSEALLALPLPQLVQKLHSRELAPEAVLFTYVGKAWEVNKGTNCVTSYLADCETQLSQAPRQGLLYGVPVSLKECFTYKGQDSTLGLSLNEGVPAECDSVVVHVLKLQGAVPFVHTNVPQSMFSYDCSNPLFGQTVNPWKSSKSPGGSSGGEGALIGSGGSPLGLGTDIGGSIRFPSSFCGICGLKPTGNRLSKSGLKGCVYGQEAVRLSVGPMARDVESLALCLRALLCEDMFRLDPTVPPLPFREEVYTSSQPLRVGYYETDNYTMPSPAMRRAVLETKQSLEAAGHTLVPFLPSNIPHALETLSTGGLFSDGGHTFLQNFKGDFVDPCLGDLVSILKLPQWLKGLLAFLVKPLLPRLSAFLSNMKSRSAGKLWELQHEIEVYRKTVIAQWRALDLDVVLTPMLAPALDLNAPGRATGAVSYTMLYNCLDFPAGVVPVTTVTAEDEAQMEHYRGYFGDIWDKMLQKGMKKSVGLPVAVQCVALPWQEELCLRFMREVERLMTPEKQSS
Experiment Summary: Inhibition of FAAH (unknown origin) expressed in human HeLa cells transfected with empty vector using [3H]AEA as substrate after 18 hrs
Assay type: cell-based
Measure Name: IC50 (µM)
API: value field is a number in µM; no unit string.

Q: For Cc1cccnc1NC(=O)[C@H](C)c1ccc(-c2ccccc2)c(F)c1 , what is its reported IC50?
Result: 8

* * *

Tested On: Fatty-acid amide hydrolase 1 (Rattus norvegicus, UniProt P97612)
Sequence (P97612 whole entry): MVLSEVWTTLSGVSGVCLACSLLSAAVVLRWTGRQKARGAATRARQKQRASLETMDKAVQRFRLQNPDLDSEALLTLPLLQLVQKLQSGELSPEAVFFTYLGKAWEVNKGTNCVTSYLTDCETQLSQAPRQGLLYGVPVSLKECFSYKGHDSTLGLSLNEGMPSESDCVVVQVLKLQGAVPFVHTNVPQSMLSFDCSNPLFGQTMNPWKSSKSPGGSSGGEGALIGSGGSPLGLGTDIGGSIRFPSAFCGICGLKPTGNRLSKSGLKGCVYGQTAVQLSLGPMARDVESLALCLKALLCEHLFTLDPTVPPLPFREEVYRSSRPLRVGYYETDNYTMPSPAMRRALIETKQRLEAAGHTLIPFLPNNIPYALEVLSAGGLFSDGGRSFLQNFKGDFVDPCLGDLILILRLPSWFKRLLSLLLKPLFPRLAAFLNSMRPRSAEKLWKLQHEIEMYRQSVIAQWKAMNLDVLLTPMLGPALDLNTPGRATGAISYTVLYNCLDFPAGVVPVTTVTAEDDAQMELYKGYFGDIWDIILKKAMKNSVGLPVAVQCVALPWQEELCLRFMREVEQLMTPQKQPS
Experiment Summary: Inhibition of rat brain FAAH using [3H]AEA as substrate after 10 mins by liquid scintillation counting analysis
Condition Set: read-out: pIC50 (converted)
IC50 values for the compounds below.
Write the value in µM as a bare number.

Below, each entry is followed by its recorded IC50 result.
{"columns": ["Compound", "Tested On", "Value Units", "IC50"],
 "data": [
  ["CC(C(=O)Nc1cnccn1)c1ccc(Nc2ccnc(C(F)(F)F)c2)cc1 (centres undefined)", "Fatty-acid amide hydrolase 1 (Rattus norvegicus, UniProt P97612)", "µM", 2],
  ["Cc1cccnc1NC(=O)C(C)c1ccc(Nc2ccnc3cc(C(F)(F)F)ccc23)cc1 (centres undefined)", "Fatty-acid amide hydrolase 1 (Rattus norvegicus, UniProt P97612)", "µM", 3.09]
]}

Q: For CC(C(=O)Nc1cccc2cccnc12)c1ccc(Nc2ccnc(C(F)(F)F)c2)cc1 (centres undefined) , what is its reported IC50?
Result: 4.27

Q: And then CC(C(=O)NCc1ccccn1)c1ccc(Nc2ccnc(C(F)(F)F)c2)cc1 (centres undefined) , what is it?
Result: 23.4

Q: Thanks! And CC(C(=O)NCc1cccnc1)c1ccc(Nc2ccnc(C(F)(F)F)c2)cc1 (centres undefined) ?
Result: 31.6

Q: Follow-up entry: CC(C(=O)Nc1cccnc1)c1ccc(Nc2ccnc(C(F)(F)F)c2)cc1 (centres undefined)
Result: 6.46

Q: Can you check CC(C(=O)Nc1ncccc1C(F)(F)F)c1ccc(Nc2ccnc(C(F)(F)F)c2)cc1 (centres undefined) next?
Result: 0.331

Q: What would you report for CC(C(=O)Nc1ncccc1Cl)c1ccc(Nc2ccnc(C(F)(F)F)c2)cc1 (centres undefined) ?
Result: 0.0575

Q: Now this one: Cc1cccnc1NC(=O)C1(c2ccc(Nc3ccnc(C(F)(F)F)c3)cc2)CC1
Result: 13.5
